src = ChEMBL document CHEMBL3603773

The next entries give measured IC50 for Acetylcholinesterase (Homo sapiens).
Express it in µM; write the number only.

> print(dat)
                           substance.smiles  property  value.reported
1  CN(C)CCC[C@@]1(c2ccc(F)cc2)OCc2cc(-c3nnc(-c4cccc(Cl)c4)[nH]3)ccc21      IC50             413

Next:
Provide Acetylcholinesterase (Homo sapiens) IC50 reading for "CN(C)CCC[C@@]1(c2ccc(F)cc2)OCc2cc(-c3nnc(-c4ccccc4F)[nH]3)ccc21" . 188

====

Assayed target: Cholinesterase (Homo sapiens)
Experiment: Inhibition of BChE (unknown origin) using butyrylthiocholine chloride as substrate at 0.5 mM preincubated for 30 mins before substrate addition measured after 30 mins by Ellman method relative to control
Threshold check on inhibition: at or above 80% gives True, strictly below gives False.

inhibition >= 80% for "COc1cccc(-c2nnc(-c3ccc4c(c3)CO[C@@]4(CCCN(C)C)c3ccc(F)cc3)[nH]2)c1" ? True

Hi team, for "Cc1ccc(-c2nnc(-c3ccc4c(c3)CO[C@@]4(CCCN(C)C)c3ccc(F)cc3)[nH]2)cc1" , is the recorded inhibition at or above 80%? True

Confirm if inhibition reported for the compound "CN(C)CCC[C@@]1(c2ccc(F)cc2)OCc2cc(-c3nnc(-c4ccccc4Br)[nH]3)ccc21" is 80% or above. False

Does "CN(C)CCC[C@@]1(c2ccc(F)cc2)OCc2cc(-c3nnc(-c4ccccc4[N+](=O)[O-])[nH]3)ccc21" have a reported inhibition of at least 80%? False

Determine whether this compound has inhibition no lower than 80%: "CN(C)CCC[C@@]1(c2ccc(F)cc2)OCc2cc(-c3nnc(-c4ccc([N+](=O)[O-])cc4)[nH]3)ccc21" False

Evaluate "COc1ccccc1-c1nnc(-c2ccc3c(c2)CO[C@@]3(CCCN(C)C)c2ccc(F)cc2)[nH]1" : inhibition at minimum 80%? False

====

What follows is a collection of IC50 values obtained with Cholinesterase (Homo sapiens, UniProt P06276).
Sequence (P06276 whole entry): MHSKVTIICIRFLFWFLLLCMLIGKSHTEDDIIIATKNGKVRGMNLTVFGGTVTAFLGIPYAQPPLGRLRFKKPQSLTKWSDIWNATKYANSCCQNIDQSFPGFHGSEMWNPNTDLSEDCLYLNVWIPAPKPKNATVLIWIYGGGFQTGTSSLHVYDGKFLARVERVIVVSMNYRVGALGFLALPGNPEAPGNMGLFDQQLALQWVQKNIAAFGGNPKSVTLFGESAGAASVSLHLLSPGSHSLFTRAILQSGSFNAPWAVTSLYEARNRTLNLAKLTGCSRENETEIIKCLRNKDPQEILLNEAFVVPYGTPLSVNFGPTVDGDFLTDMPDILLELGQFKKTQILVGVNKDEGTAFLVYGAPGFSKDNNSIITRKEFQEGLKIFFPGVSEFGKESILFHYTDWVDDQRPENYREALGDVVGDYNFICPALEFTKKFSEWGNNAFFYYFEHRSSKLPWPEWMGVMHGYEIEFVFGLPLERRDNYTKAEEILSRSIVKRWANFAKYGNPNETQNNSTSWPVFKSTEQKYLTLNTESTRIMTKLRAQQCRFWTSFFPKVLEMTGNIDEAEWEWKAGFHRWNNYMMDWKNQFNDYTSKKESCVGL
Write the value in µM as a bare number.

Completed entries (count: 2):
> print(dat)
                           substance.smiles                            assayed.target  property  display.unit  value.reported
1  CN(C)CCC[C@@]1(c2ccc(F)cc2)OCc2cc(-c3nnc(-c4ccc(Cl)cc4)[nH]3)ccc21  Cholinesterase (Homo sapiens, UniProt P06276)      IC50            µM             151
2  CN(C)CCC[C@@]1(c2ccc(F)cc2)OCc2cc(-c3nnc(-c4ccccc4N)[nH]3)ccc21  Cholinesterase (Homo sapiens, UniProt P06276)      IC50            µM             111

State the measured IC50 (Cholinesterase (Homo sapiens, UniProt P06276)) of "CN(C)CCC[C@@]1(c2ccc(F)cc2)OCc2cc(-c3nnc(-c4ccccc4Br)[nH]3)ccc21" 141

====

Assayed target: Acetylcholinesterase (Homo sapiens, UniProt P22303)
Sequence (P22303 whole entry): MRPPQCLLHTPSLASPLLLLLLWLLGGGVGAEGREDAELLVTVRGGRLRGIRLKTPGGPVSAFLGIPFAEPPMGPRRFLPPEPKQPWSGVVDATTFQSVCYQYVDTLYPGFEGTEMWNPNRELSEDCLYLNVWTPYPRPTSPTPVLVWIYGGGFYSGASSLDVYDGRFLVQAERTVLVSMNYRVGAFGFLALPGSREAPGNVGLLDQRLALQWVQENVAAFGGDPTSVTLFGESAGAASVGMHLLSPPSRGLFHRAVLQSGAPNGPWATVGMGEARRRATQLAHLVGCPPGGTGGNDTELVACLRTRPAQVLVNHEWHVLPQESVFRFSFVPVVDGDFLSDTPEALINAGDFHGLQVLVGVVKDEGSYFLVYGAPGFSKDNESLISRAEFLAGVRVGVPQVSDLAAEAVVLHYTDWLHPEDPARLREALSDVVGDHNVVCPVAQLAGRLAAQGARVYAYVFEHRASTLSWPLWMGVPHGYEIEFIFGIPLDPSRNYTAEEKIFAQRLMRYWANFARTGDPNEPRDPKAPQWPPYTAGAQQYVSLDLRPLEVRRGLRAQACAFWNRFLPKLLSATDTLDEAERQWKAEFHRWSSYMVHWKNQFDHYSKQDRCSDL
Property: IC50

Example entries and their recorded answers appear below.
> print(dat)
                           substance.smiles  value.reported
1  CN(C)CCC[C@@]1(c2ccc(F)cc2)OCc2cc(-c3nnc(-c4cccc(Br)c4)[nH]3)ccc21        < 500 µM
2  CN(C)CCC[C@@]1(c2ccc(F)cc2)OCc2cc(-c3nnc(-c4cccc(F)c4)[nH]3)ccc21        < 500 µM
3  COc1cc(-c2nnc(-c3ccc4c(c3)CO[C@@]4(CCCN(C)C)c3ccc(F)cc3)[nH]2)ccc1O        < 500 µM

Attention now shifts to the item below.
Please give measured IC50 of the following entry: "COc1cccc(-c2nnc(-c3ccc4c(c3)CO[C@@]4(CCCN(C)C)c3ccc(F)cc3)[nH]2)c1" 124 µM
